tested on: biotinyl-Ile-oxazolone; experiment: self-aminoacylation, catalytic enhancement (BIO) (fold over background); higher = more active; k-Seq, kA / k0A0; sequences stand for … in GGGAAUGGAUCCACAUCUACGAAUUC…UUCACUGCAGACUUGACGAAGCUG
This sample holds only a part of the variants without activity.
Tag: 1 if measured self-aminoacylation is not below 2, 0 if it is.

IN: Record AUGCAACUAGGUCAUCGGGUG [Fam2.2 aminoacylation ribozyme variant] ; criterion: self-aminoacylation no lower than 2. Met?
OUT: 1

IN: hey, is self-aminoacylation for this one >= 2? CCACACUACAAGGAAUCGGUC [Fam1B.1 aminoacylation ribozyme variant]
OUT: 0

IN: Check if self-aminoacylation >= 2 (inclusive). Item: CUACUUGAAACAAUCGGGCUG [Fam1A.1 aminoacylation ribozyme variant]
OUT: 0

IN: Check this sequence for self-aminoacylation at or above 2: CCACUUAAAACAAUCGGUCUG [Fam1A.1 aminoacylation ribozyme variant]
OUT: 0

IN: Reported self-aminoacylation at or above 2? CCACACUUGAAGCAAUCGUUC [Fam1B.1 aminoacylation ribozyme variant]
OUT: 0

IN: self-aminoacylation >= 2 for AAGUUUCCUAAUAUUCGCAAG [Fam3.1 aminoacylation ribozyme variant] ?
OUT: 0

IN: Is self-aminoacylation for CUACGUCAAACAAUGGGUCUG [Fam1A.1 aminoacylation ribozyme variant] at or above 2?
OUT: 0

IN: Say whether GUUCACCUAGGUCAUCGGGUG [Fam2.2 aminoacylation ribozyme variant] shows self-aminoacylation of 2 or more.
OUT: 1

IN: Is it the case that AAGUUUGCUAUUAGUCUCAAG [Fam3.1 aminoacylation ribozyme variant] has self-aminoacylation reaching or exceeding 2?
OUT: 0

IN: Assess whether reported self-aminoacylation for GUUACCCUGGACAUCGAGUGA [Fam2.1 aminoacylation ribozyme variant] sits at 2 or higher.
OUT: 1

IN: Is it the case that AUUCACCAAGAUCAUCGGGUG [Fam2.2 aminoacylation ribozyme variant] has self-aminoacylation reaching or exceeding 2?
OUT: 1

IN: Check this sequence for self-aminoacylation at or above 2: AACGUUGCUAAUAGUCGCAAG [Fam3.1 aminoacylation ribozyme variant]
OUT: 0

IN: I'd appreciate it if you could say whether CCACACUGCCAGCAAUCGGUC [Fam1B.1 aminoacylation ribozyme variant] has self-aminoacylation at least equal to 2.
OUT: 0

IN: Item GCUCACUUCAAGCAAUCGGUC [Fam1B.1 aminoacylation ribozyme variant] with self-aminoacylation of 2 or above?
OUT: 0

IN: Would you say AUUCGCCUUGGUCAUCGGGUG [Fam2.2 aminoacylation ribozyme variant] shows self-aminoacylation at minimum 2?
OUT: 1

IN: Hello, I need to know if AAGUUUGCUAUUAGUCGCAAG [Fam3.1 aminoacylation ribozyme variant] has measured self-aminoacylation not below 2. Thanks!
OUT: 0

IN: Confirm if self-aminoacylation reported for the sequence AUUACUCUGGUCAUCGAGUGA [Fam2.1 aminoacylation ribozyme variant] is 2 or above.
OUT: 1

----------
tested on: biotinyl-Met-oxazolone; experiment: self-aminoacylation, catalytic enhancement (BMO) (fold over background); higher = more active; k-Seq, kA / k0A0; sequences stand for … in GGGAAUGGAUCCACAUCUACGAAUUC…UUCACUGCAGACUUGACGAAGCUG
Variants at the floor of the assay were thinned out.
Outcome label depends on self-aminoacylation relative to 1: at/above gives class 1, below gives class 0.

IN: Given the entry AUUCACGUAGGGCAUCGGGUG [Fam2.2 aminoacylation ribozyme variant] , answer whether its self-aminoacylation meets or surpasses 1.
OUT: class 1

IN: Textbook exercise: given the entry CCACACUUGAAGCAAUCGUUC [Fam1B.1 aminoacylation ribozyme variant] , state whether its self-aminoacylation is greater than or equal to 1.
OUT: class 0

IN: In plain terms: is recorded self-aminoacylation at least 1 for AUACUUCCAACAAUCGGUCUG [Fam1A.1 aminoacylation ribozyme variant] ?
OUT: class 0

IN: Kindly determine if self-aminoacylation recorded for CCACACUUUAAGCAAUCGCUC [Fam1B.1 aminoacylation ribozyme variant] is above or exactly 1.
OUT: class 1

IN: Tell me whether self-aminoacylation is at least 1 here: ACACACUUCAAGCAAACGGUC [Fam1B.1 aminoacylation ribozyme variant]
OUT: class 0

IN: Reported self-aminoacylation at or above 1? AUUCACCUGGGUCAGCGGGUG [Fam2.2 aminoacylation ribozyme variant]
OUT: class 1

IN: Could you please find out whether AUUCCCCUAGGUCAUCGCGUG [Fam2.2 aminoacylation ribozyme variant] has self-aminoacylation that meets 1 or exceeds it?
OUT: class 1

IN: Exam item: decide whether the reported self-aminoacylation for AUCCACCAAGGUCAUCGGGUG [Fam2.2 aminoacylation ribozyme variant] is at least 1.
OUT: class 1

IN: Please check the record AUUACCGUGGUCUUCGAGUGA [Fam2.1 aminoacylation ribozyme variant] and state if its self-aminoacylation is at or above 1.
OUT: class 1

IN: Confirm if self-aminoacylation reported for the sequence ACUCACCUAGGUGAUCGGGUG [Fam2.2 aminoacylation ribozyme variant] is 1 or above.
OUT: class 1

IN: Does the sequence AUUGACCUAGGUCAUCGUGUG [Fam2.2 aminoacylation ribozyme variant] have recorded self-aminoacylation that is 1 or more?
OUT: class 1

IN: # check: self-aminoacylation of AUUCACCUGGGUCAUCGGGUG [Fam2.2 aminoacylation ribozyme variant] is greater than or equal to 1
OUT: class 1

IN: Form field: self-aminoacylation at least 1? Entry: UUACUUCAAACAAUCGGUCCG [Fam1A.1 aminoacylation ribozyme variant]
OUT: class 0

IN: Item AUUCACCUGGGUCAUCGGGGG [Fam2.2 aminoacylation ribozyme variant] with self-aminoacylation of 1 or above?
OUT: class 1

IN: Check if self-aminoacylation >= 1 (inclusive). Item: AAGUUUGCUAAUAAACGCAAG [Fam3.1 aminoacylation ribozyme variant]
OUT: class 0

IN: In plain terms: is recorded self-aminoacylation at least 1 for CUACUUCAAUCAAUCUGUCUG [Fam1A.1 aminoacylation ribozyme variant] ?
OUT: class 0

IN: Is self-aminoacylation at least 1? Consider CUACUUCAACCUAUCGGUCUG [Fam1A.1 aminoacylation ribozyme variant]
OUT: class 1

IN: Please check the record AAGUCUGCUAAUAGUCCCAAG [Fam3.1 aminoacylation ribozyme variant] and state if its self-aminoacylation is at or above 1.
OUT: class 1

IN: Reported self-aminoacylation at or above 1? AAGUUUGCUGAUAGUAGCAAG [Fam3.1 aminoacylation ribozyme variant]
OUT: class 1

IN: Could you verify whether the entry AUUAACCUGGUCAUCGAGUUA [Fam2.1 aminoacylation ribozyme variant] shows self-aminoacylation of no less than 1?
OUT: class 1

IN: Does the sequence AAGUUUGCUUAUAGUCUCAAG [Fam3.1 aminoacylation ribozyme variant] have recorded self-aminoacylation that is 1 or more?
OUT: class 1

IN: Would you say AUUCAGCUAGGUCAUCGGGAG [Fam2.2 aminoacylation ribozyme variant] shows self-aminoacylation at minimum 1?
OUT: class 1

IN: API: above_or_equal(metric=self-aminoacylation, cutoff=1) for item CUUACCCUGGUCAUCGUGUGA [Fam2.1 aminoacylation ribozyme variant]
OUT: class 1

IN: Check this sequence for self-aminoacylation at or above 1: AUUACCCUGGUCAUCGAGGUA [Fam2.1 aminoacylation ribozyme variant]
OUT: class 1

IN: Is self-aminoacylation at least 1? Consider AGUCACCUAGGACAUCGGGUG [Fam2.2 aminoacylation ribozyme variant]
OUT: class 1

IN: Record AUUACCCUGGUCCUCGUGUGA [Fam2.1 aminoacylation ribozyme variant] ; criterion: self-aminoacylation no lower than 1. Met?
OUT: class 1

IN: Dear colleague, could you confirm whether AGUCACUUAGGUCAUCGGGUG [Fam2.2 aminoacylation ribozyme variant] has self-aminoacylation at or above 1?
OUT: class 1

IN: Determine whether this sequence has self-aminoacylation no lower than 1: AUUAAGCUGGUCAUCGAGUGA [Fam2.1 aminoacylation ribozyme variant]
OUT: class 1

IN: Could you verify whether the entry AAGUUUGCUAAUAGUGGCACG [Fam3.1 aminoacylation ribozyme variant] shows self-aminoacylation of no less than 1?
OUT: class 0

IN: Determine whether this sequence has self-aminoacylation no lower than 1: CUAUUUCAAAUAAUCGGUCUG [Fam1A.1 aminoacylation ribozyme variant]
OUT: class 0

IN: Dear colleague, could you confirm whether AUUACCCUCGUCAUCGAGUGU [Fam2.1 aminoacylation ribozyme variant] has self-aminoacylation at or above 1?
OUT: class 1

IN: Evaluate CUAGUUUAAACAAUCGGUCUG [Fam1A.1 aminoacylation ribozyme variant] : self-aminoacylation at minimum 1?
OUT: class 0

IN: Tell me whether self-aminoacylation is at least 1 here: CCACACUUCUUGCAAUCGGUC [Fam1B.1 aminoacylation ribozyme variant]
OUT: class 0

IN: Item AUUACUCUGGUCAUGGAGUGA [Fam2.1 aminoacylation ribozyme variant] with self-aminoacylation of 1 or above?
OUT: class 1

IN: Could you verify whether the entry CCACACAUCAAACAAUCGGUC [Fam1B.1 aminoacylation ribozyme variant] shows self-aminoacylation of no less than 1?
OUT: class 0

All values here come from the supplement of paper PMC9233669.
